Consider the following compounds; for each one, report its activation.
- experimental_system: Cellular tumor antigen p53 (Homo sapiens)
- protocol_summary: Primary qHTS for small molecule compounds that upregulate eGFP-tagged delta133p53alpha (in N-terminal) cells. (AID 2060322);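 further: cells pre-induced with doxycycline then dosed without doxycycline; series mostly up to about 56 µM; 0% = DMSO vehicle and 100% = reference activator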
- applied_conditions: NCI-H358 eGFP-delta133p53alpha fluorescence, 24 h; stronger effect = higher value
Records with an inconclusive call do not appear.
Kindly answer with a numeric value in %, unit omitted.

Q. I have this compound here, CC[C@]12C=CCN3CC[C@@]4(c5cc([C@@]6(C(=O)OC)C[C@H]7C[C@@H](C(C)(F)F)CN(Cc8c6[nH]c6ccccc86)C7)c(OC)cc5N(C)[C@H]4[C@@](O)(C(=O)OC)[C@H]1OC(C)=O)[C@@H]32 , and I need its recorded activation.
A. -7.99

Q. Please answer likewise for COc1cc(CC(=O)O)ccc1O
A. -3.12

Q. Please answer likewise for N#CC(=C(\N)Sc1ccccc1N)/C(C#N)=C(/N)Sc1ccccc1N
A. -29.9

Q. Please answer likewise for CC(=O)NS(=O)(=O)c1ccc(N)cc1
A. -1.67

Q. Please answer likewise for COC(=O)N1CCC(n2ncc3c(N4CCOCC4)nc(-c4ccc(NC(=O)NC5CC5)cc4)nc32)CC1
A. 12.4

Q. Please answer likewise for NC[C@H]1O[C@H](O[C@H]2[C@H](O)[C@@H](O[C@H]3O[C@H](CO)[C@@H](O)[C@H](N)[C@H]3O)[C@H](N)C[C@@H]2N)[C@H](N)[C@@H](O)[C@@H]1O
A. -10.7

Q. Please answer likewise for CC(/C=C/C1(O)C(C)CC(O)CC1(C)C)OC1OC(CO)C(O)C(O)C1O (stereo not drawn)
A. -12.2

Q. Please answer likewise for Cc1ccc(C)c(NS(=O)(=O)c2cc(C(=O)Nc3ccccc3-c3ccccc3)ccc2C)c1
A. 1.67

---

- experimental_system: Cellular tumor antigen p53 (Homo sapiens) (UniProt P04637)
- Sequence (P04637 whole entry, looked up): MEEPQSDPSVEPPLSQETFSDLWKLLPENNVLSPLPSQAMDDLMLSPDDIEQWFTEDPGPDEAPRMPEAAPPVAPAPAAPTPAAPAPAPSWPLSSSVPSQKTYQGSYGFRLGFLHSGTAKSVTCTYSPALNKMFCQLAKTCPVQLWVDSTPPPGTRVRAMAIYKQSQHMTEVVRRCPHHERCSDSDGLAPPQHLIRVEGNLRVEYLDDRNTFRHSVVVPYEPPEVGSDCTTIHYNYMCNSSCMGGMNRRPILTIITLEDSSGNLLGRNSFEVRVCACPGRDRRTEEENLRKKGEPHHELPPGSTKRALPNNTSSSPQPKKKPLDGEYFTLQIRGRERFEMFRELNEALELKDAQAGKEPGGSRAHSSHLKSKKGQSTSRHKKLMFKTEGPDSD
- protocol_summary: Primary qHTS for small molecule compounds that upregulate eGFP-tagged delta133p53alpha (in N-terminal) cells. (AID 2060322);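 further: cells pre-induced with doxycycline then dosed without doxycycline; series mostly up to about 56 µM; 0% = DMSO vehicle and 100% = reference activator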
- applied_conditions: NCI-H358 eGFP-delta133p53alpha fluorescence, 24 h; stronger effect = higher value
Inconclusive results are not listed.
measured_quantity: activation (%)
Kindly answer with a numeric value in %, unit omitted.

Q. I have this molecule here, CC(=O)C1=C(C)N(c2cccc(C(F)(F)F)c2)C(=O)N[C@H]1c1ccc(C#N)nc1 , and I need its recorded activation.
A. -3.67

Q. Please answer likewise for CN(C)CC(c1ccc(O)cc1)C1(O)CCCCC1 (configuration not stated)
A. -9.55

Q. Please answer likewise for O=C(O)c1cn(C2CC2)c2cc(N3CCNCC3)c(F)cc2c1=O
A. 6.67

Q. Please answer likewise for CC1(C(=O)O)CCCC2(C)C3=CCC4CC3(CCC12)CC4CO (configuration not stated)
A. 3.82

Q. Please answer likewise for O=C(O[C@H]1[C@@H]2C[C@@H]3OC[C@@](O)([C@H]2[C@H](O[C@@H]2O[C@H](CO)[C@@H](O)[C@H](O)[C@H]2O)O3)[C@@H]1O)c1ccccc1
A. 5.36

Q. Please answer likewise for N[C@@H](CSCCCO)C(=O)O
A. -10

Q. Please answer likewise for CC(=O)O[C@@H]1[C@H](O[C@@H]2O[C@H](CO)[C@@H](O)[C@H](O)[C@H]2O)[C@@H](O[C@@H]2O[C@@H](C)[C@H](O)[C@@H](O[C@@H]3O[C@H](CO)[C@@H](O)[C@H](O)[C@H]3O)[C@H]2O)[C@H](OC(=O)[C@]23CCC(C)(C)C[C@H]2C2=CCC4[C@@]5(C)C[C@H](O)[C@H](O[C@@H]6O[C@H](C(=O)O)[C@@H](O)[C@H](O)[C@H]6O)[C@@](C)(C(=O)O)C5CC[C@@]4(C)[C@]2(C)CC3)O[C@@H]1C (some centres not stated)
A. 2.29
